Values compiled from patent US20210238260.

target: Factor X (FX), P00742
Sequence (P00742 whole entry, looked up): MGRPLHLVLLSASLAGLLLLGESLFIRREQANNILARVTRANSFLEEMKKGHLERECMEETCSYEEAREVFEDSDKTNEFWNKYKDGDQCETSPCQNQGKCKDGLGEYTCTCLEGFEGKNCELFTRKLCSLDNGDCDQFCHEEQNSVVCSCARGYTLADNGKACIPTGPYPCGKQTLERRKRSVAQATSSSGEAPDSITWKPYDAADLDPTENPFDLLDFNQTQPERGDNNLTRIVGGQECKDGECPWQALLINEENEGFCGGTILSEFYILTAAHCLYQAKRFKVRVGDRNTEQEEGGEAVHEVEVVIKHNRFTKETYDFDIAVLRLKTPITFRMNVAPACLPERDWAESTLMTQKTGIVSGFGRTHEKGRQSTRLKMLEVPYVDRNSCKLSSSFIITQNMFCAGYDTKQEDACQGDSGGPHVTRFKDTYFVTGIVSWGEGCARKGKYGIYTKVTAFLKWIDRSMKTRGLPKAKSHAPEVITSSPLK
Readings of KM for the listed proteins
metric: KM

[[record]]
protein = "FIXa-K247N/N249S/N260S/R318Y/R338E/R403E/E410N (protein) chain 1: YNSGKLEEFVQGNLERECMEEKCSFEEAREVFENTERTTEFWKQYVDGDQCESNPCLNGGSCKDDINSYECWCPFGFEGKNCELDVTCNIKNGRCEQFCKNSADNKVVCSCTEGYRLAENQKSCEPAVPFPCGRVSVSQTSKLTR chain 2: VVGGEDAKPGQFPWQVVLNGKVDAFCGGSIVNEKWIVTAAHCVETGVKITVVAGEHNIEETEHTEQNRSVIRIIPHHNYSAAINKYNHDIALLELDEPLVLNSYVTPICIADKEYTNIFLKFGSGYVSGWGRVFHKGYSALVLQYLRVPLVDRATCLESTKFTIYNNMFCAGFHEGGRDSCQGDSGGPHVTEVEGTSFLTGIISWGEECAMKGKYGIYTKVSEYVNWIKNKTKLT"
result = "0.0622 µM"

[[record]]
protein = "FIXa-K247N/N249S/R318Y/R338E/T343R/R403E (protein) chain 1: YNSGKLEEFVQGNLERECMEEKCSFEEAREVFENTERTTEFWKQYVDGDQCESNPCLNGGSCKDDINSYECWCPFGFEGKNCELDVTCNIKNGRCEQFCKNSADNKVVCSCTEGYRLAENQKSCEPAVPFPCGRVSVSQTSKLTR chain 2: VVGGEDAKPGQFPWQVVLNGKVDAFCGGSIVNEKWIVTAAHCVETGVKITVVAGEHNIEETEHTEQNRSVIRIIPHHNYNAAINKYNHDIALLELDEPLVLNSYVTPICIADKEYTNIFLKFGSGYVSGWGRVFHKGYSALVLQYLRVPLVDRATCLESTKFRIYNNMFCAGFHEGGRDSCQGDSGGPHVTEVEGTSFLTGIISWGEECAMKGKYGIYTKVSEYVNWIKEKTKLT"
result = "0.0284 µM"

[[record]]
protein = "FIXa-Y155F/N260S/R318Y/R338E/T343R/R403E/E410N (protein) chain 1: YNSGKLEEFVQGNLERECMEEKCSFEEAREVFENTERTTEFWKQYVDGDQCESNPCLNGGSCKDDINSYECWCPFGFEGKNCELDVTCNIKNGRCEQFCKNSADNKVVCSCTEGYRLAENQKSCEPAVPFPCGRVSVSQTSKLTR chain 2: VVGGEDAKPGQFPWQVVLNGKVDAFCGGSIVNEKWIVTAAHCVETGVKITVVAGEHNIEETEHTEQKRNVIRIIPHHNYSAAINKYNHDIALLELDEPLVLNSYVTPICIADKEYTNIFLKFGSGYVSGWGRVFHKGYSALVLQYLRVPLVDRATCLESTKFRIYNNMFCAGFHEGGRDSCQGDSGGPHVTEVEGTSFLTGIISWGEECAMKGKYGIYTKVSEYVNWIKNKTKLT"
result = "0.0402 µM"

[[record]]
protein = "FIXa-Y155F/R318Y/R338E/N346D/R403E/E410N (protein) chain 1: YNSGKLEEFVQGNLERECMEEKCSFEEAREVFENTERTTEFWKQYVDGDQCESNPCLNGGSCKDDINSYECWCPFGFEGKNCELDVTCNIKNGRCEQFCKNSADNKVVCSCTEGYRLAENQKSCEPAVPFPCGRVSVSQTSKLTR chain 2: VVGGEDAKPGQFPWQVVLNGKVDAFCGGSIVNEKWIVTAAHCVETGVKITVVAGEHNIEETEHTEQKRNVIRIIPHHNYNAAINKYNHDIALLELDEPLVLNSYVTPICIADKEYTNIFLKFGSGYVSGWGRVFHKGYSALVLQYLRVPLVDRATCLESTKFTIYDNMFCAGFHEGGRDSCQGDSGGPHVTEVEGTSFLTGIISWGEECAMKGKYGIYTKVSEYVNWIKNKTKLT"
result = "0.1 µM"

